# System: BV-2
# Experiment Notes: Cytotoxicity against LPS-stimulated mouse BV-2 cells assessed as reduction in cell viability at 20 uM measured after 24 hrs by MTT assay relative to control
# Assay type: cell-based
# Condition Info: bv-2, 24 h
In this section we review reported Activity values for a set of molecules.
Numbers only; they are read as %.

Here is how some molecules turned out for Activity.
- Molecule: "C=C1C(=O)O[C@@H]2CC(C)=C([C@@H](C)CCCOC(C)=O)[C@@H](OC(C)=O)[C@H]12"
  Measured Attribute: "Activity"
  Unit String: "%"
  Numeric Result: 66.5
- Molecule: "C=C1C(=O)O[C@H]2[C@@H]1[C@H](OC(C)=O)C([C@@H](C)CCCOC(C)=O)=C(C)[C@@H]2Br"
  Measured Attribute: "Activity"
  Unit String: "%"
  Numeric Result: 96.1
- Molecule: "C#Cc1ccc(-c2cn([C@@H]3C(C)=C([C@@H](C)CCCOC(C)=O)[C@@H](OC(C)=O)[C@@H]4C(=C)C(=O)O[C@@H]43)nn2)cc1"
  Measured Attribute: "Activity"
  Unit String: "%"
  Numeric Result: 38.5
- Molecule: "C=C1C(=O)O[C@@H]2CC(C)=C([C@@H](C)CCCOC(C)=O)[C@@H](O)[C@H]12"
  Measured Attribute: "Activity"
  Unit String: "%"
  Numeric Result: 99.5

Entry under test: C=C1C(=O)O[C@@H]2C=C(C)C(Cl)([C@@H](C)CCCOC(C)=O)[C@@H](OC(C)=O)[C@H]12 (stereo not given in full) . Its Activity was 90.8

----------
Catalogue of Papp at 10 h readings, one per entry.
# Experiment Notes: Effective permeability of the compound in PBS/EtOH buffer (9:1) at […] after 10 hrs by HPLC-UV based PAMPA-BBB assay
# Type: ADME
# Condition Info: read-out: permeability
Enter your answer as a number in ×10⁻⁶ cm/s; do not include the unit.

- Compound: "NC(=O)N1c2ccccc2C=Cc2ccccc21 [CARBAMAZEPINE]"
  Unit String: "×10⁻⁶ cm/s"
  Papp at 10 h: 10.7
- Compound: "C=C1C(=O)O[C@@H]2CC(C)=C([C@@H](C)CCCOC(C)=O)[C@@H](O)[C@H]12"
  Unit String: "×10⁻⁶ cm/s"
  Papp at 10 h: 7.5

For reference, reported Papp at 10 h for "C=C1C(=O)O[C@@H]2CC(CBr)=C([C@@H](C)CCCOC(C)=O)[C@@H](OC(C)=O)[C@H]12" stands at 6.5

So, "C=C1C(=O)O[C@@H]2CC(C)=C([C@@H](C)CCCOC(C)=O)[C@@H](OC(C)=O)[C@H]12" ? Its Papp at 10 h was 12.3

----------
# System: BV-2
# Experiment Notes: Cytotoxicity against LPS-stimulated mouse BV-2 cells assessed as reduction in cell viability at 20 uM measured after 24 hrs by MTT assay relative to control
# Type: cell-based
# Condition Info: bv-2, 24 h
Reported Activity values for the following compounds.
Numbers only here, please. The scale is %.

- Compound: "C=C1C(=O)O[C@@H]2CC(CN3CCCC3)=C([C@@H](C)CCCOC(C)=O)[C@@H](OC(C)=O)[C@H]12"
  Tested Target: "BV-2"
  Activity (%): 95.2
- Compound: "CC(=O)OCCC[C@H](C)C1C(C)C[C@H]2OC(=O)C(C)[C@H]2[C@@H]1O (mixture of isomers)"
  Tested Target: "BV-2"
  Activity (%): 98.5
- Compound: "COc1ccccc1C1=NO[C@]2(C1)C(=O)O[C@@H]1CC(C)=C([C@@H](C)CCCOC(C)=O)[C@@H](OC(C)=O)[C@@H]12"
  Tested Target: "BV-2"
  Activity (%): 99.2
- Compound: "CC(=O)OCCC[C@H](C)C1=C(C)C[C@H]2OC(=O)[C@@H](C)[C@H]2[C@@H]1O"
  Tested Target: "BV-2"
  Activity (%): 101.2
- Compound: "C=C1C[C@H]2OC(=O)C(=C)[C@H]2C=C1[C@@H](C)CCCOC(C)=O"
  Tested Target: "BV-2"
  Activity (%): 54.2
- Compound: "O=c1c(O)c(-c2ccc(O)c(O)c2)oc2cc(O)cc(O)c12"
  Tested Target: "BV-2"
  Activity (%): 98.1
- Compound: "C=C1C(=O)O[C@H]2[C@@H]1[C@H](OC(C)=O)C([C@@H](C)CCCOC(C)=O)=C(C)[C@H]2n1cc(C(=O)OC)nn1"
  Tested Target: "BV-2"
  Activity (%): 63.8
- Compound: "CC(=O)OCCC[C@H](C)C1=C(C)C[C@H]2OC(=O)[C@]3(CC(c4ccccc4Br)=NO3)[C@H]2[C@@H]1OC(C)=O"
  Tested Target: "BV-2"
  Activity (%): 98.6
- Compound: "C=C1C(=O)O[C@H]2[C@@H]1[C@H](OC(C)=O)C([C@@H](C)CCCOC(C)=O)=C(C)[C@H]2n1cc(-c2ccccc2)nn1"
  Tested Target: "BV-2"
  Activity (%): 57.3
- Compound: "CC(=O)OCCC[C@H](C)C1=C(C)C[C@H]2OC(=O)[C@]3(CC(c4ccc5ccccc5c4)=NO3)[C@H]2[C@@H]1OC(C)=O"
  Tested Target: "BV-2"
  Activity (%): 95.4

In plain terms, "CC(=O)OCCC[C@H](C)C1=C(C)C[C@H]2OC(=O)/C(=C/c3ccc(O)cc3)[C@H]2[C@@H]1O" has a documented Activity of 102.5

Kindly note the recorded Activity for C=C1C(=O)O[C@@H]2CC(=C)C(Cl)([C@@H](C)CCCOC(C)=O)[C@@H](OC(C)=O)[C@H]12 (stereo partly drawn) , which is 90.9

Activity reported for this compound "C=C1C(=O)O[C@H]2[C@@H]1[C@H](OC(C)=O)C([C@@H](C)CCCOC(C)=O)=C(CBr)[C@@H]2Br" : 96

The compound listed as "CC(=O)OCCC[C@H](C)C1=C(C)C[C@H]2OC(=O)[C@]3(CC(c4ccc(F)cc4)=NO3)[C@H]2[C@@H]1OC(C)=O" has a reported Activity of 101.5

Activity recorded for this compound, "C=C1C(=O)O[C@@H]2CC(CN(CC)CC)=C([C@@H](C)CCCOC(C)=O)[C@@H](OC(C)=O)[C@H]12" , is 94.1

Record "COc1ccc(C2=NO[C@]3(C2)C(=O)O[C@@H]2CC(C)=C([C@@H](C)CCCOC(C)=O)[C@@H](OC(C)=O)[C@@H]23)cc1" , field Activity: 96.5

Sample "C=C1C(=O)O[C@@H]2C[C@@]3(C)O[C@@]3([C@@H](C)CCCOC(C)=O)[C@@H](O)[C@H]12" ; Activity observed: 93.4
